Test system: 171881-019-R-J1-PDC complex spheroid viability
Protocol Summary: Anticancer human tumor 171881-019-R-J1-PDC patient-derived invasive breast carcinoma cell line growth inhibition
Details: second compound 10 µM; first compound 0.00316 µM; active compounds read low
Label key: met means viability, T/C under 80%; not met means viability, T/C of 80% or more.

O=C(C=Cn1cnc(-c2cc(C(F)(F)F)cc(C(F)(F)F)c2)n1)NNc1cnccn1 + NC1CCC(NC2CC2c2ccccc2)CC1: met
COc1cc(Nc2ncc3c(n2)-c2ccc(Cl)cc2C(c2c(F)cccc2OC)=NC3)ccc1C(=O)O + NC1CCC(NC2CC2c2ccccc2)CC1: not met
Cn1ncnc1C1c2n[nH]c(=O)c3cc(F)cc(c23)NC1c1ccc(F)cc1 (stereo not given) + NC1CCC(NC2CC2c2ccccc2)CC1: met

Now look at this one.
Query: Does the reported viability, T/C of the following compound sit strictly below 80%? CC(C)CC(NC(=O)C(Cc1ccccc1)NC(=O)c1cnccn1)B(O)O (stereo not given) + NC1CC1c1ccc(-c2cccc(O)c2)cc1
Result: met

====

Test system: 171881-019-R-J1-PDC complex spheroid viability
Protocol Summary: Anticancer human tumor 171881-019-R-J1-PDC cell line growth inhibition;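 note: spheroids exposed to agents for 7 days after 3 days growth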
Details: second compound 0.316 µM; first compound 0.00316 µM; active compounds read low
We label by threshold. Values of viability, T/C strictly beneath 50% are YES. Values of 50% and up are NO.

Known results for compounds:
Cn1ncnc1C1c2n[nH]c(=O)c3cc(F)cc(c23)NC1c1ccc(F)cc1 (configuration not stated) + NC1CC1c1ccc(-c2cccc(O)c2)cc1: NO
CC(C)CC(NC(=O)C(Cc1ccccc1)NC(=O)c1cnccn1)B(O)O (configuration not stated) + NC1CC1c1ccc(-c2cccc(O)c2)cc1: YES
CC(C)CC(NC(=O)CNC(=O)c1cc(Cl)ccc1Cl)B1OC(=O)CC(CC(=O)O)(C(=O)O)O1 (configuration not stated) + NC1CC1c1ccc(-c2cccc(O)c2)cc1: YES
CC1COCCN1c1cc(-c2ccnn2C)c2ccnc(-c3ccn[nH]3)c2n1 (configuration not stated) + NC1CCC(NC2CC2c2ccccc2)CC1: NO
O=C(C=Cn1cnc(-c2cc(C(F)(F)F)cc(C(F)(F)F)c2)n1)NNc1cnccn1 + NC1CC1c1ccc(-c2cccc(O)c2)cc1: YES
Nc1ncn(C2CC(O)C(CO)O2)c(=O)n1 (configuration not stated) + NC1CCC(NC2CC2c2ccccc2)CC1: NO
CC1COCCN1c1cc(-c2ccnn2C)c2ccnc(-c3ccn[nH]3)c2n1 (configuration not stated) + NC1CC1c1ccc(-c2cccc(O)c2)cc1: NO
COc1cc(Nc2ncc3c(n2)-c2ccc(Cl)cc2C(c2c(F)cccc2OC)=NC3)ccc1C(=O)O + NC1CC1c1ccc(-c2cccc(O)c2)cc1: NO

Query: Criterion: viability, T/C strictly below 50%. Is it met by COc1cc(Nc2ncc3c(n2)-c2ccc(Cl)cc2C(c2c(F)cccc2OC)=NC3)ccc1C(=O)O + NC1CCC(NC2CC2c2ccccc2)CC1 ?
Result: NO

Query: Please indicate whether the reported viability, T/C of O=C(C=Cn1cnc(-c2cc(C(F)(F)F)cc(C(F)(F)F)c2)n1)NNc1cnccn1 + NC1CCC(NC2CC2c2ccccc2)CC1 is strictly below 50%.
Result: YES

Query: For this compound, is viability, T/C lower than 50%? Nc1ncn(C2CC(O)C(CO)O2)c(=O)n1 (configuration not stated) + NC1CC1c1ccc(-c2cccc(O)c2)cc1
Result: NO

Query: Field: below-cutoff. Rule: recorded viability, T/C strictly less than 50%. Subject: CC[C@@]1(O)C(=O)OCc2c1cc1n(c2=O)Cc2cc3c(CN(C)C)c(O)ccc3nc2-1 + NC1CC1c1ccc(-c2cccc(O)c2)cc1
Result: NO

====

Tested on: 171881-019-R-J1-PDC complex spheroid viability
Protocol Summary: Anticancer human tumor 171881-019-R-J1-PDC cell line growth inhibition;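 note: spheroids exposed to agents for 7 days after 3 days growth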
Details: second compound 0.316 µM; first compound 0.0316 µM; active compounds read low
Observable: viability, T/C (%)
Give the number; % is assumed, so skip it.

O=C(C=Cn1cnc(-c2cc(C(F)(F)F)cc(C(F)(F)F)c2)n1)NNc1cnccn1 + NC1CC1c1ccc(-c2cccc(O)c2)cc1: 5.36
CC[C@@]1(O)C(=O)OCc2c1cc1n(c2=O)Cc2cc3c(CN(C)C)c(O)ccc3nc2-1 + NC1CC1c1ccc(-c2cccc(O)c2)cc1: 61.9
O=C(C=Cn1cnc(-c2cc(C(F)(F)F)cc(C(F)(F)F)c2)n1)NNc1cnccn1 + NC1CCC(NC2CC2c2ccccc2)CC1: 6.07
CC(C)c1c(-c2ccccc2)nc2c(C#N)c[nH]n2c1=O + NC1CC1c1ccc(-c2cccc(O)c2)cc1: 102

Given the molecule CC1(C)CCC(CN2CCN(c3ccc(C(=O)NS(=O)(=O)c4ccc(NCC5CCOCC5)c([N+](=O)[O-])c4)c(Oc4cnc5[nH]ccc5c4)c3)CC2)=C(c2ccc(Cl)cc2)C1 + NC1CCC(NC2CC2c2ccccc2)CC1 and test system 171881-019-R-J1-PDC complex spheroid viability, the measured viability, T/C is 79.3

====

Test system: 171881-019-R-J1-PDC complex spheroid viability
Protocol Summary: Anticancer human tumor 171881-019-R-J1-PDC cell line growth inhibition; active = viability on the fitted dose curve at most 10% of control; inactive = the rest;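 note: spheroids exposed to agents for 7 days after 3 days growth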
Details: second compound 10 µM; first compound 1 µM
From the text: Multicellular complex tumor spheroid response to LSD1 Inhibitor Iadademstat in combination with a variety of drugs and investigational agents in selected tumor cell lines The current study was undertaken to assess response to LSD1 inhibitors in combination with standard-of-care drugs and investigational agents in solid tumor complex spheroid models as well as in the K-562 leukemia. […] Compounds. […] If the clinical Cmax for an agent had not been determined, the highest concentration tested was 10 microM. […]
Hello, when you answer, please use one of the following outcomes: 1.0 = active, 0.0 = inactive

Solved entries (count: 2):
Nc1ncn(C2CC(O)C(CO)O2)c(=O)n1 (stereo not drawn) + NC1CC1c1ccc(-c2cccc(O)c2)cc1: 0.0
CC1COCCN1c1cc(-c2ccnn2C)c2ccnc(-c3ccn[nH]3)c2n1 (stereo not drawn) + NC1CCC(NC2CC2c2ccccc2)CC1: 1.0

Now look at this one.
Query: Short answer needed: outcome of this test for CC1(C)CCC(CN2CCN(c3ccc(C(=O)NS(=O)(=O)c4ccc(NCC5CCOCC5)c([N+](=O)[O-])c4)c(Oc4cnc5[nH]ccc5c4)c3)CC2)=C(c2ccc(Cl)cc2)C1 + NC1CCC(NC2CC2c2ccccc2)CC1 ?
Result: 0.0

====

Test system: 171881-019-R-J1-PDC complex spheroid viability
Protocol Summary: Anticancer human tumor 171881-019-R-J1-PDC cell line growth inhibition;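 note: spheroids exposed to agents for 7 days after 3 days growth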
Details: second compound 0.316 µM; first compound 0.0316 µM; active compounds read low
Observable: viability, T/C (%)
Answer in %, number only, no unit symbol.

// below: answered compounds
CC1(C)CCC(CN2CCN(c3ccc(C(=O)NS(=O)(=O)c4ccc(NCC5CCOCC5)c([N+](=O)[O-])c4)c(Oc4cnc5[nH]ccc5c4)c3)CC2)=C(c2ccc(Cl)cc2)C1 + NC1CC1c1ccc(-c2cccc(O)c2)cc1: 103
CC1COCCN1c1cc(C2(S(C)(=N)=O)CC2)nc(-c2ccnc3[nH]ccc23)n1 (stereo not given) + NC1CC1c1ccc(-c2cccc(O)c2)cc1: 106
COc1ccc([C@@H](O)c2cc(-c3ncnc4cc(N5CCOCC5)ccc34)c(F)cc2Cl)nn1 + NC1CCC(NC2CC2c2ccccc2)CC1: 94.8
CC1COCCN1c1cc(-c2ccnn2C)c2ccnc(-c3ccn[nH]3)c2n1 (stereo not given) + NC1CC1c1ccc(-c2cccc(O)c2)cc1: 23.6

Please turn your attention to the following entry.
Form field viability, T/C, entry Cn1ncnc1C1c2n[nH]c(=O)c3cc(F)cc(c23)NC1c1ccc(F)cc1 (stereo not given) + NC1CC1c1ccc(-c2cccc(O)c2)cc1 : 108
